Each recorded value in this set is attributed to patent US20180016324A1.

Biological target: T1, ZIKV (prM80E) with a C-terminal myc-myc-hexahistidine tag (Zika virus, UniProt A0A024B7W1 104-694)
T1 construct: also called ZIKV (prM80E)-mmH; ZIKV-mmH
Experiment: SPR, mAb captured, 25C
reported_endpoint: kon (M⁻¹ s⁻¹)

binder	reported_endpoint	data_value
H4H25640P (antibody, V domains shown) VH: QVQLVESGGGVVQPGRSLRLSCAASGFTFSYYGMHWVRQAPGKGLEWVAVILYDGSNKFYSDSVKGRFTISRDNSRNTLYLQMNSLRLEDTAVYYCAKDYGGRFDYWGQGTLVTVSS VL: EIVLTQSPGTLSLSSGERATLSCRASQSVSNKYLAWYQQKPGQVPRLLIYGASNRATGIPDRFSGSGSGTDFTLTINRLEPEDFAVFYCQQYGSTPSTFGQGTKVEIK	kon	1.21e+06
H4H25566P (antibody, V domains shown) VH: QVQLQESGPGLVKPSQTLSLTCTVSGGSISSGGYYWSWIRQHPGKGLEWIGYIYYSGSTYYNPSLKSRITISIDTSKNQFSLKLTSVTAADTAVYYCARGQQLLSFDYWGQGTLVTVSS VL: DIQMTQSPSSVSASVGDRVTITCRASQGISRWLAWYQLKPGKPPTPLIYAASSLQSGAPSRFSGRGSGTDFTLTISSLQPEDFATYYCQQANSFPYTFGQGTKLEIK	kon	590000
H4H25630P (antibody, V domains shown) VH: QVQLVQSGAEVKRPGASVKVSCKASDYTFTDYGISWVRQAPGQGLEWMGWFNTYNGNTNYAQKFQGRITMTTDTSTSTAYMELRSLRSDDTAIYYCARDWGLHYFENWGQGTLVTVSS VL: EIVLTQSPGTLSLSPGERATLSCRASQSVRNSYLAWYQQKPGQAPRLLIYGASSRDTGIPDRFSGSGSGTDFTLTISRLEPEDFAVYYCQQYGRSPWTFGQGTKVEIK	kon	1.67e+06
